Average EC50, pSTAT5 Assay (T cells) values for the binders below.
- System Tested: T1, IL-2 receptor βγ complex (human, UniProt P14784 27-551; P31785 23-369)
- T1 sequence (looked up) 1: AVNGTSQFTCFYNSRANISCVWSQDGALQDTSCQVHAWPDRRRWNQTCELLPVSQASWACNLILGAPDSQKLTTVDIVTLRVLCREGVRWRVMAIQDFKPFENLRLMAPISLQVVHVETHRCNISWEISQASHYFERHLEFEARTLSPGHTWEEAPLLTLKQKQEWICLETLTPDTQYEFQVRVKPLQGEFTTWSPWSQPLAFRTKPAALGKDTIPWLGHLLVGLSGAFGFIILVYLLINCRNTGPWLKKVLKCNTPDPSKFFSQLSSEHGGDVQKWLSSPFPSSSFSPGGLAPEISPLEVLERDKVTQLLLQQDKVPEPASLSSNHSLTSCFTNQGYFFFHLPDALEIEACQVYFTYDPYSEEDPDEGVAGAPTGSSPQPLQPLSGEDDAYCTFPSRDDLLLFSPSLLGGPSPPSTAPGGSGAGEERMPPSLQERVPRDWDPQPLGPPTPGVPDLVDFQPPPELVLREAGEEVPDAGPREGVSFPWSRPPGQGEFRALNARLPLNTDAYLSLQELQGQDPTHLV
- T1 sequence (looked up) 2: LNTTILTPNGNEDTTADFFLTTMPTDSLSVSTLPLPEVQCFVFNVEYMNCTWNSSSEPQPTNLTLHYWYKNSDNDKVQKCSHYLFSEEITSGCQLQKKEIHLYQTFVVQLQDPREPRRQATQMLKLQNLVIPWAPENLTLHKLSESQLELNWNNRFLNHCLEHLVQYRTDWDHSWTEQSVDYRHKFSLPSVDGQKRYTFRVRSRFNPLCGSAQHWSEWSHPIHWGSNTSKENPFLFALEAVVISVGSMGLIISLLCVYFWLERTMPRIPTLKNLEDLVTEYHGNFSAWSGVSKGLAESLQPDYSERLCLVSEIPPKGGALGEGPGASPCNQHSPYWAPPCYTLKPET
- Procedure Text: cell-based or functional assay
Bridges are numbered along the chain shown (N, C = ends). Primed or numbered codes have the meaning given here. [ ]: non-standard residue; d: D form. Ygp(4) = Tyr with amino-capped PEG8 (O-(8x polyethylene glycol-amino)-tyrosine); Yn3(4) = Tyr with azide-capped PEG9 (O-(9x polyethylene glycol-azido)-tyrosine); Ygp = O-(8x polyethylene glycol-amino)-tyrosine (Tyr, amino-capped PEG8); Yn3 = O-(9x polyethylene glycol-azido)-tyrosine (Tyr, azide-capped PEG9); hSer = N[C@@H](CCO)C(=O)O; Nle = CCCC[C@H](N)C(=O)O
Recorded Endpoint: Average EC50, pSTAT5 Assay (T cells)

binder="CMP-304 (ligand, bridge N-29; not fully specified (N-terminus, bridges); ends not checked) PLGLAGAPTSSSTKKTQLQLEHLLLDLQEILNGINNYKNPKLTR[Nle]L[hSer][Yn3(4)]KF[Ygp(4)][Nle]PKKATELKHLQCLEEELKPLEEVL[hSer]LAQSKNFHLRPRDLISNINVIVLELKGSETTF[hSer]CEYADETATIVEFLNRWITFSQSIISTLT" experimental_value="110 nM"
binder="CMP-167 (ligand, bridge N-23; not fully specified (bridges); ends not checked; also: sequence of the cleavable peptide in the bridge not given here) APTSSSTKKTQLQLEHLLLDLQKILNGINNYKNPKLTR[Nle]L[hSer][Yn3]KF[Ygp][Nle]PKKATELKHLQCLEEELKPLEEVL[hSer]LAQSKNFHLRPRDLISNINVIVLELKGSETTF[hSer]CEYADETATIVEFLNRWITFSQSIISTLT" experimental_value="176 nM"
binder="CMP-305, MMP2 cleaved molecule (ligand, also: m29 after MMP2 cleavage: Glu15-Lys23 cleavable peptide bridge cut, remnants on Glu15 and Lys23 not given here) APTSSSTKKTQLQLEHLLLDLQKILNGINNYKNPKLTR[Nle]L[hSer][Yn3]KF[Ygp][Nle]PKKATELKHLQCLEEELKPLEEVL[hSer]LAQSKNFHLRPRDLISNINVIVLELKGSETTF[hSer]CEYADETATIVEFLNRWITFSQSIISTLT" experimental_value="3.26 nM"
binder="CMP-163, MMP2 cleaved molecule (ligand, not fully specified; ends and bridges not checked) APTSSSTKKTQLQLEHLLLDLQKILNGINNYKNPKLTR[Nle]L[hSer][Yn3(4)]KF[Ygp(4)][Nle]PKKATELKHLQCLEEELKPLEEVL[hSer]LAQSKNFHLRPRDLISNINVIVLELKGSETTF[hSer]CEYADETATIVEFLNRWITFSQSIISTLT" experimental_value="0.76 nM"
binder="CMP-302 (ligand, lactam N-30; ends not checked) GPLGLAGAPTSSSTKKTQLQLEHLLLDLQEILNGINNYKNPKLTR[Nle]L[hSer][Yn3(4)]KF[Ygp(4)][Nle]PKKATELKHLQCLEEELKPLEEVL[hSer]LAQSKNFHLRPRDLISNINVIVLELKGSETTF[hSer]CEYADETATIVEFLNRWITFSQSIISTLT" experimental_value="63.4 nM"
binder="CMP-167, MMP2 cleaved molecule (ligand, ends and bridges not checked; also: MMP2 cleaved, cleavage site and linker fragments on N-terminus and Lys23 side chain not given here) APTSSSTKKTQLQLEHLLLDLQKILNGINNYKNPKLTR[Nle]L[hSer][Yn3]KF[Ygp][Nle]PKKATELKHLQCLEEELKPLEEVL[hSer]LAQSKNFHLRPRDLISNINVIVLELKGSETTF[hSer]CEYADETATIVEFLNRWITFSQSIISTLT" experimental_value="5.31 nM"
binder="CMP-164, MMP2 cleaved molecule (ligand, ends and bridges not checked; also: MMP2 cleaved, cleavage site and linker fragments on N-terminus and Lys23 side chain not given here) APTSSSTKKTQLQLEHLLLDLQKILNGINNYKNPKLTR[Nle]L[hSer][Yn3]KF[Ygp][Nle]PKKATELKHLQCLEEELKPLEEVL[hSer]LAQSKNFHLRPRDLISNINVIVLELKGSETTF[hSer]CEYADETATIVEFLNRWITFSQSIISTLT" experimental_value="0.61 nM"
binder="CMP-301, MMP2 cleaved molecule (ligand, not fully specified; ends and bridges not checked; also: cleaved by MMP2, product not given here, N-terminus linked to another sequence via PEG9, Glu23 side chain linked to another sequence) APTSSSTKKTQLQLEHLLLDLQEILNGINNYKNPKLTR[Nle]L[hSer][Yn3(4)]KF[Ygp(4)][Nle]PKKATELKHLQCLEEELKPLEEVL[hSer]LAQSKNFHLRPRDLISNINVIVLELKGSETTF[hSer]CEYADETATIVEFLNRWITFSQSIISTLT" experimental_value="0.883 nM"
binder="CMP-165 (ligand, bridge N-23; not fully specified (bridges); ends not checked; also: sequence of the cleavable peptide in the bridge not given here) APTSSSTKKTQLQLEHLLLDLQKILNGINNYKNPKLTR[Nle]L[hSer][Yn3]KF[Ygp][Nle]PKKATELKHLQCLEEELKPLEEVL[hSer]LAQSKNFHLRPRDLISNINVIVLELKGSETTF[hSer]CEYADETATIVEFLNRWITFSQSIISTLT" experimental_value="57.4 nM"

The measurements presented in this section are drawn from patent US20240376170A1.
